Values compiled from patent US4385055A.

Test system: Mycobacterium smegmatis
Experiment: MIC against Mycobacterium smegmatis strains (Test 4)
Type: cell-based
Conditions: Mycolicibacterium smegmatis, ATCC607, Mycobacterium smegmatis strain I (ATCC 607); read-out: Minimum Inhibitory Concentration
readout: MIC (µg/mL)
Numbers only, in µg/mL.

compound | MIC [µg/mL]
CC(=NNC(=S)N(C)C)c1ccccn1 | 2
CC(=NNC(=S)N1CCC1)c1ccccn1 | 2
CC(=NNC(=S)N1CCCC1)c1ccccn1 | 2
CC(=NNC(=S)N1CCN(c2ccccn2)CC1)c1ccccn1.Cl.Cl | 6

Can you give me MIC for all of these, one by one?
1. Nc1ccc(S(=O)(=O)c2ccc(N)cc2)cc1 [DDS, reference compound]
2. CC(C)/N=c1\cc2n(-c3ccc(Cl)cc3)c3ccccc3nc-2cc1Nc1ccc(Cl)cc1 [Clofazimine, reference compound]
3. CCC1CCCCN1C(=S)NN=C(C)c1ccccn1 (stereo not drawn)
4. CO[C@H]1/C=C/O[C@@]2(C)Oc3c(C)c(O)c4c(O)c(c(/C=N/N5CCN(C)CC5)c(O)c4c3C2=O)NC(=O)/C(C)=C\C=C\[C@H](C)[C@H](O)[C@@H](C)[C@@H](O)[C@@H](C)[C@H](OC(C)=O)[C@@H]1C [Rifampin, reference compound]

1: 2; 2: 1.5; 3: 5; 4: 1

* * *

Test system: Mycobacterium intracellulare
Assay: Broth dilution MIC, Mycobacterium intracellulare strains (Test 6)
Format: cell-based
Conditions: Mycobacterium intracellulare strain I, read-out: Minimum Inhibitory Concentration
readout: MIC (µg/mL)
Numbers only, in µg/mL.

molecule | readout | recordedValue
CC(=NNC(=S)NC12CC3CC(CC(C3)C1)C2)c1ccccn1 [S] | MIC | 10
CCC1CCCCN1C(=S)NN=C(C)c1ccccn1 (centres unmarked) [AA] | MIC | 10
CC(=NNC(=S)N1CCCCCC1)c1ccccn1 [H] | MIC | 1

Can you give me MIC for all of these, one by one?
1. CC(=NNC(=S)N1CCCCCCCCCCCC1)c1ccccn1 [Z]
2. CC(=NNC(=S)N1CC2CCC(CC2)C1)c1ccccn1 [L]

1: 10; 2: 10

* * *

System: Mycobacterium smegmatis
Test: MIC against Mycobacterium smegmatis strains (Test 4)
Format: cell-based
Details: Mycolicibacterium smegmatis, Mycobacterium smegmatis strain IV (Clofazimine-resistant daughter strain); read-out: Minimum Inhibitory Concentration
readout: MIC (µg/mL)
One number for each entry, in µg/mL.

compound | readout | unitsOfMeasure | recordedValue
CC(C)/N=c1\cc2n(-c3ccc(Cl)cc3)c3ccccc3nc-2cc1Nc1ccc(Cl)cc1 [Clofazimine, reference compound] | MIC | µg/mL | 20
CC(=NNC(=S)N1CCN(c2ccccn2)CC1)c1ccccn1.Cl.Cl [W] | MIC | µg/mL | 6
CCC1CCCCN1C(=S)NN=C(C)c1ccccn1 (stereo not shown) [AA] | MIC | µg/mL | 10
CC(=NNC(=S)N(C)C)c1ccccn1 [R] | MIC | µg/mL | 2

Respond only with MIC recorded for CC(=NNC(=S)N1CCCC1)c1ccccn1 [HH]
4

* * *

Would you mind telling me the reported MIC of each entry?
System: Neisseria gonorrhoeae
Experiment: Agar dilution MIC, Neisseria gonorrhoeae isolates (Test 3)
Type: cell-based
Conditions: 24 h, Neisseria gonorrhoeae isolate 278, read after 24 hours, read-out: Minimum Inhibitory Concentration
Numbers only, in µg/mL.

Observe how each entry below is paired with its result.
compound | assayedSystem | readout | unitsOfMeasure | recordedValue
CC(=NNC(=S)N1CCCC1)c1ccccn1 [HH] | Neisseria gonorrhoeae | MIC | µg/mL | 0.008
CCC(=NNC(=S)N(C)C)c1ccccn1 [JJ] | Neisseria gonorrhoeae | MIC | µg/mL | 0.016
CC(=NNC(=S)N1CC2CCC(CC2)C1)c1ccccn1 [L] | Neisseria gonorrhoeae | MIC | µg/mL | 0.031

Can you give me MIC for all of these, one by one?
1. CC(=NNC(=S)N1CCCCC1)c1ccccn1 [GG]
2. CC(=NNC(=S)N1CCN(c2ccccc2)CC1)c1ccccn1 [K]
3. CC(=NNC(=S)N(C)C)c1ccccn1 [R]
4. CC(=NNC(=S)N1CCCCCC1)c1ccccn1 [H]
5. CC(=NNC(=S)N1CCN(c2ccccn2)CC1)c1ccccn1 [V]

1: 0.008; 2: 0.031; 3: 0.008; 4: 0.031; 5: 0.031

* * *

Would you mind telling me the reported MIC of each entry?
Test system: Staphylococcus aureus
Experiment: Macro broth dilution MIC, Staphylococcus aureus isolates (Test 1)
Assay type: cell-based
Details: 24 h, Staphylococcus aureus isolate II, read after 24 hours, read-out: Minimum Inhibitory Concentration
Answers are plain numbers, in µg/mL.

Observe how each entry below is paired with its result.
compound | recordedValue
CC(=NNC(=S)N1CC2CCC(CC2)C1)c1ccccn1 | 1
CC(=NNC(=S)NC12CC3CC(CC(C3)C1)C2)c1ccccn1 | 2
CC(=NNC(=S)NCc1ccccc1C)c1ccccn1 | 2

Pending compound:
Respond only with MIC recorded for CC(=NNC(=S)N1CCCCC1C)c1ccccn1 (stereo not shown)
1

* * *

Would you mind telling me the reported MIC of each entry?
Tested on: Mycobacterium intracellulare
Experiment: Broth dilution MIC, Mycobacterium intracellulare strains (Test 6)
Format: cell-based
Conditions: Mycobacterium intracellulare strain V, read-out: Minimum Inhibitory Concentration
One number for each entry, in µg/mL.

Observe how each entry below is paired with its result.
compound | MIC / µg/mL
CC(=NNC(=S)N1CC2CCC(CC2)C1)c1ccccn1 | 0.1
CC(=NNC(=S)NC12CC3CC(CC(C3)C1)C2)c1ccccn1 | 10
CC(=NNC(=S)N1CCCCCCCCCCCC1)c1ccccn1 | 10
CCC1CCCCN1C(=S)NN=C(C)c1ccccn1 (centres unmarked) | 10

Pending compound:
Respond only with MIC recorded for `CC(=NNC(=S)N1CCCCCC1)c1ccccn1`
1

* * *

System: Neisseria gonorrhoeae
Test: Agar dilution MIC, Neisseria gonorrhoeae isolates (Test 3)
Assay type: cell-based
Settings: 24 h, Neisseria gonorrhoeae isolate 456, read after 24 hours, read-out: Minimum Inhibitory Concentration
readout: MIC (µg/mL)
Numbers only, in µg/mL.

Observe how each entry below is paired with its result.
molecule | unitsOfMeasure | MIC
CC(=NNC(=S)N1CCCCC1)c1ccccn1 | µg/mL | 0.008
CC(=NNC(=S)N1CCCCCC1)c1ccccn1 | µg/mL | 0.016
CC(=NNC(=S)N1CCN(c2ccccc2)CC1)c1ccccn1 | µg/mL | 0.016
CCC(=NNC(=S)N(C)C)c1ccccn1 | µg/mL | 0.008
CC(=NNC(=S)N1CC2CCC(CC2)C1)c1ccccn1 | µg/mL | 0.031

Can you give me MIC for all of these, one by one?
1. CC(=NNC(=S)N1CCN(c2ccccn2)CC1)c1ccccn1
2. CC(=NNC(=S)N(C)C)c1ccccn1
3. CC(=NNC(=S)N1CCCC1)c1ccccn1

1. 0.016
2. 0.008
3. 0.008

* * *

Test system: Mycobacterium intracellulare
Test: Broth dilution MIC, Mycobacterium intracellulare strains (Test 6)
Format: cell-based
Conditions: Mycobacterium intracellulare strain VI, read-out: Minimum Inhibitory Concentration
Would you mind telling me the reported MIC of each entry?
Give bare numbers, in µg/mL.

Observe how each entry below is paired with its result.
compound | unitsOfMeasure | MIC
CC(=NNC(=S)N1CCCCCCCCCCCC1)c1ccccn1 | µg/mL | 10
CCC1CCCCN1C(=S)NN=C(C)c1ccccn1 (centres unmarked) | µg/mL | 10

Can you give me MIC for all of these, one by one?
1. CC(=NNC(=S)NC12CC3CC(CC(C3)C1)C2)c1ccccn1
2. CC(=NNC(=S)N1CCCCCC1)c1ccccn1
3. CC(=NNC(=S)N1CC2CCC(CC2)C1)c1ccccn1

10
1
0.1

* * *

Would you mind telling me the reported MIC of each entry?
Tested on: Neisseria meningitidis
Experiment: Macro broth dilution MIC, Neisseria meningitidis isolates (Test 2)
Assay type: cell-based
Conditions: Neisseria meningitidis, 24 h, Neisseria meningitidis isolate 8005; read after 24 hours; read-out: Minimum Inhibitory Concentration
One number for each entry, in µg/mL.

compound | unitsOfMeasure | MIC
CC1(C)S[C@@H]2[C@H](NC(=O)[C@H](N)c3ccccc3)C(=O)N2[C@H]1C(=O)O [Ampicillin, reference compound] | µg/mL | 0.008
CC(=NNC(=S)N1CCN(c2ccccn2)CC1)c1ccccn1 [V] | µg/mL | 0.125
CC(=NNC(=S)N(C)C)c1ccccn1 [R] | µg/mL | 0.062
CC(=NNC(=S)N1CCCCC1C)c1ccccn1 (centres unmarked) [B] | µg/mL | 0.125
CC(=NNC(=S)N1CCCCCC1)c1ccccn1 [H] | µg/mL | 0.062
CC(=NNC(=S)N1CCN(c2ccccc2)CC1)c1ccccn1 [K] | µg/mL | 1

Pending compound:
Respond only with MIC recorded for CC(=NNC(=S)N(CC(C)C)CC(C)C)c1ccccn1 [O]
0.5
